Test: HUVEC growth inhibition – cell-based, human, primary screen (AID 575);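 also: 100% = median of untreated cell wells with 0.1% DMSO on each plate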
Settings: HUVEC proliferation, CellTiter-Glo luminescence, 72 h; at 10 µM; stronger effect = lower value
Please respond with true (1) when measured viability is strictly beneath 90%, and with false (0) in all other cases.

Query: Consider the compound CCOC(=O)c1[nH]c2ccc(C)cc2c1N=C(C)N(C)C . Is its viability strictly less than 90%?
Result: false (0)

Query: State whether 90% exceeds viability recorded for CCOc1ccc(OCC)c(NC(=O)CN2CCN(C(=O)c3ccco3)CC2)c1 .
Result: true (1)

---

Target: Receptor tyrosine-protein kinase erbB-2 (Homo sapiens)
Assay: reducers of endogenous Her2 protein level, primary screen, SKBR3 breast tumor cells, AlphaScreen, ATP viability (AID 461);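 also: lower value means less Her2 protein in the cells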
Conditions: 18-24 h, at 10 µM, stronger effect = lower value
Mark class 1 only when Her2 level stays strictly below 90%. Values equal to the cut-off are class 0.

# count of solved cases: 8
> print(dat)
                                   compound    class
1  O=C(c1ccc(Cl)cc1)N1CCCCC(Sc2nnc(-c3ccc4c(c3)OCO4)o2)C1=O (stereo unspecified)  class 1
2  Cc1noc(C)c1S(=O)(=O)N1CCCC(C(=O)NCCc2ccc(Cl)cc2)C1 (stereo unspecified)  class 1
3  CC(C)(C)N(Cc1cc2ccccc2[nH]c1=O)C(=O)C1CCCCC1  class 0
4  CCOc1cc(C2c3c(n[nH]c3C)C(=O)N2c2ccc(Br)cc2)ccc1O (stereo unspecified)  class 1
5  CCC(=O)N1CCN(CCN=CC2=C(O)CC(C)(C)CC2=O)CC1  class 0
6              CCCCOc1ccc(C(=O)Nn2cnnc2)cc1  class 1
7       CCCOc1nc(N)c(C#N)c(-c2ccccc2F)c1C#N  class 0
8  CCOc1ccc(S(=O)(=O)N2CCN(C(=O)c3cccn3C)CC2)cc1  class 1

Query: Would you kindly verify if Her2 level of O=C1CN=C(Nc2cccc(C(F)(F)F)c2)N1C1CCCC1 is strictly less than 90%?
Result: class 0

Query: In the record for O=C(C1CCN(S(=O)(=O)N2CCC3(CC2)OCCO3)CC1)N1CCOCC1 , is Her2 level less than 90%?
Result: class 0

Query: API: query returns whether the compound falls strictly under 90% in Her2 level. Query: CCCCc1noc2c1/C(=N\O)CC(c1ccccc1)C2 (stereo unspecified)
Result: class 1

Query: Below 90% on Her2 level? Entry CCOc1ccccc1C(=O)NCCC(=O)O
Result: class 0

Query: Does the reported Her2 level of the following compound sit strictly below 90%? COc1cccc2cc(C(=O)C3=C(O)C(=O)N(CCCN4CCOCC4)C3c3ccncc3)oc12 (stereo unspecified)
Result: class 0

Query: Strictly below 90% in Her2 level? CC(C)CN(C(=O)COC(=O)Cc1n[nH]c(=O)c2ccccc12)C1CCS(=O)(=O)C1 (stereo unspecified)
Result: class 0

Query: Record O=C(C1CCC1)N1CCc2cc(S(=O)(=O)N3CCc4ccccc4C3)ccc21 : is its Her2 level strictly below 90%?
Result: class 0

Query: Does Cc1ccccc1NC(=O)C1CCN(c2cnccn2)CC1 have Her2 level strictly under 90%?
Result: class 0

Query: Determine if CCOC(=O)/C(C#N)=C1\Nc2ccccc2N=C1N(CC(C)C)CC(C)C shows Her2 level strictly lower than 90%.
Result: class 0

Query: Consider Cc1cccc2sc(NC(=O)CN(C)S(=O)(=O)c3cccs3)nc12 . Does its Her2 level lie strictly below 90%?
Result: class 0

Query: Input O=C(c1ccccc1)c1coc2ccc(O)c(CN3CCOCC3)c12 ; condition: Her2 level strictly below 90%. Does it hold?
Result: class 1

---

Assay: 384-well plate pilot, post-Golgi transport modulator project, inhibition of yeast transport mutant growth (AID 636)
Conditions: absorbance 615 nm, about 18 h, stronger effect = higher value
Recorded inhibition by entry
The answer is to be given in %; state only the numeric part.

> print(dat)
                                   compound  measurednumber
1     O=C(c1ccccc1F)N1CCN(Cc2cccc(Cl)c2)CC1           -5.32
2              COC(=O)c1c(C#N)c(N)nc2c1CCC2            -5.2
3  CN(Cc1cccs1)C(=O)CCc1ccc(S(=O)(=O)N2CCOCC2)cc1           -5.06
4  CCOC(=O)N1CCC(NC(=O)c2ccc3c(c2)N(C)CCS3)CC1           -4.21
5  COc1ccccc1N1CC(O)=C(c2nc3ccccc3c(=O)[nH]2)C1=N           -4.05

Query: Look up inhibition for this compound: Cc1nn(-c2ccc(F)cc2)c2sc(C(=O)OCC(=O)N3CCC(C)CC3)cc12
Result: -3.87

Query: Entry O=C(OCN1C(=O)c2ccccc2C1=O)c1ccc2c(=O)n3c(nc2c1)CCC3 has what inhibition?
Result: -4.73

Query: Which inhibition is reported for this compound? O=C(NCCN1CCOCC1)c1csc2c1CCCC2
Result: -7.3

Query: Consider the compound shown here: COC(=O)c1ccc(NC(=O)C(C)N2C(=O)c3ccccc3C2=O)cc1 (stereo unspecified) What is its recorded inhibition?
Result: 0.41

Query: Please give the measured inhibition for this compound: COc1ccc2c(c1OC)C(=O)N(c1ccc3c(c1)CCC3)C2=O
Result: -3.07

Query: Look up inhibition for this compound: COc1ccc(-c2cc(O)cc(O)c2)cc1
Result: -8.24

---

Assay: reversal of MRP1-mediated doxorubicin resistance, pilot screen, H69AR cells, doxorubicin co-treatment (AID 601)
Conditions: H69AR cells + 2 uM doxorubicin, CellTiter-Glo, 72 h; at 10 µM; stronger effect = higher value
resultType: differential viability (reversal) (%)
The response must be a number in % with no trailing unit.

Query: differential viability (reversal) lookup needed for CCCCN(Cc1cc2cc(OC)ccc2[nH]c1=O)C(=O)COc1ccccc1 , thanks.
Result: -4.48

Query: Could you tell me which differential viability (reversal) is on file for Cc1ccc(C(=O)NC2CC3CCCC(C2)N3C(=O)NC2CCCCC2)cc1 (stereo not drawn) ?
Result: 7.93

Query: Return reported differential viability (reversal); argument: Cc1cc(C(F)F)n2nc(C(=O)Nc3ccc(S(=O)(=O)N4CCCCCC4)cc3)nc2n1
Result: -1.62

---

Assay: 384-well plate pilot, post-Golgi transport modulator project, inhibition of yeast transport mutant growth (AID 636)
Details: absorbance 615 nm, about 18 h, stronger effect = higher value
Active and inactive are the calls of the source. No stated cut-off is given here; in the data, active means inhibition above about 31%; inactive means the rest.
resultType: inhibition

> print(dat)
                                   compound  resulttype             result
1     CCn1nc(NC(=O)c2cccnc2)c2cc3ccccc3nc21  inhibition  -8.38% (inactive)
2        Cc1nn(C(=O)c2cc3sccc3[nH]2)c(C)c1C  inhibition  -4.47% (inactive)
3  CCn1ncc(C2=NOC(C(=O)NCc3ccccc3)C2)c1C (stereo unspecified)  inhibition  -6.18% (inactive)
4            COc1ccc(OCCC(=O)NCc2ccccc2)cc1  inhibition   -3.2% (inactive)
5  CCOc1ccc(S(=O)(=O)NCC2CCCO2)c2cccnc12 (stereo unspecified)  inhibition   0.13% (inactive)
6  COc1cc(CN(C)CC(=O)c2[nH]c(C)c(C(C)=O)c2C)ccc1OC(F)F  inhibition   -5.2% (inactive)

Query: Please report the recorded inhibition for CCCCC(=O)NCCNc1nc2c(c(=O)n(C)c(=O)n2C)n1Cc1ccccc1 .
Result: -5.68% (inactive)

Query: Look up inhibition for this compound: COc1ccc2cc(CN(CCO)C(=O)c3ccccc3F)c(=O)[nH]c2c1
Result: 2.86% (inactive)

Query: So what does the record say about inhibition for CCN(CC)S(=O)(=O)c1ccc2c(c1)nc(SCC(=O)NC1CC1)n2-c1ccccc1OC ?
Result: -5.81% (inactive)

Query: Name the recorded inhibition for COc1ccc(-c2noc(COc3ccc4ccccc4c3Br)n2)cc1OC .
Result: -4.21% (inactive)

Query: Sample COC(=O)c1sccc1NC(=O)c1csc(C)c1 — what was its inhibition?
Result: -3.64% (inactive)

---

Assay: SK-BR-3 cell growth inhibitors, pilot screen, 24 h, human (AID 572);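 also: compound exposure lasted between 18 and 24 h rather than exactly 24 h; 100% = carrier-treated control wells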
Settings: SK-BR-3 viability, CellTiter-Glo luminescence, at 10 µM, stronger effect = lower value
Item-by-item account of viability
// units = %; emit number, no label

Look over these answered cases.
> print(dat)
                              inputsmiles  resulttype  outputunit  measurednumber
1                Cn1cnc2c(N3CCCCC3)nccc21   viability           %             116
2       O=C(Nc1ccccc1)c1cccc(N2CCCC2=O)c1   viability           %              93
3  Cc1nc(NCCNC(=O)c2ccco2)c2c(C)c(C)sc2n1   viability           %            87.5
4               COC(=O)CCN1CCC(C(N)=O)CC1   viability           %             100
5      CCc1cc(C)cc(OCCNC(=O)c2ncn[nH]2)c1   viability           %             117
6     CCCCN(C)Cc1c(C)[nH]c2c(Cl)cccc2c1=O   viability           %            84.5

Next item in the queue.
Query: viability; subject: C=CCc1cc(C(=O)N2CCCCC2)ccc1O
Result: 104
